Values were extracted from PubChem BioAssay (NCATS).

Assay: Viability qHTS for spleen associated tyrosine kinase inhibitor (SYKi) naive MV4-11 cells (AID 1963823); also: nearly all actives have a fitted effect of over 40% in size
Conditions: MV4-11 AML viability, CellTiter-Glo luminescence, 72 h; series mostly up to 45 µM
Description: Department of Medicine, Hematology/Oncology University Hospital Frankfurt, Germany. Trials have shown promising clinical activity of the selective SYK inhibitor entospletinib in patients with high expressing HOXA9/MEIS1 acute leukemias. […] 7; Detection; Luminescence; ViewLux plate reader (PerkinElmer). […] 1. Quantitative high-throughput screening (qHTS) of small molecule compounds was conducted on naive SYKi MV4-11 cell line. […] 7. Luminescence was measured on a ViewLux plate reader (PerkinElmer).
Records with an inconclusive call do not appear. Calls of active or inactive are those of the source. Calls follow the shape of the dose curve; as a rule, active = well fitted cell-killing curve with a large enough effect; inconclusive = small, poorly fitted or top-dose-only effect, or effect the other way; inactive = no such curve, though single readings can be large or run the other way.
Respond only with the outcome that fits, drawn from active, inactive

These recorded examples may help you get a feel for the data.
COMPOUND	CLASS LABEL
Clc1ccc2c(c1)N=C(N1CCNCC1)c1ccccc1N2	active
O=C(OC1CN2CCC1CC2)N1CCc2ccccc2C1c1ccccc1 (configuration not stated)	active
CCc1c(O)cc(O)c(C(=O)c2ccc(OCCN3CCOCC3)c(OC)c2)c1CC(=O)N(CCOC)CCOC	active
CCC(C)CNCC(=O)N1CCc2sccc2C1COc1cccc(C)c1 (configuration not stated)	active
COC(=O)Nc1nc2ccc(Sc3ccccc3)cc2[nH]1	active

[Q] What is the recorded call for this compound in the test? CC(=O)OC/C(=C/C(=O)O)CC[C@@H]1C(C)=CC(=O)[C@@H]2C(C)(C)CCC[C@@]12C
[A] inactive

[Q] Name the outcome recorded for Cc1[nH]nc(C(F)(F)F)c1Cc1sc2c(c1C(=O)N1C[C@](C)(O)CO1)c(=O)n(C)c(=O)n2C(C)C in the assay.
[A] inactive

----------
assay: Viability qHTS for spleen associated tyrosine kinase inhibitor (SYKi) naive MV4-11 cells (AID 1963823); conditions: MV4-11 AML viability, CellTiter-Glo luminescence, 72 h; series mostly up to 45 µM; also: nearly all actives have a fitted effect of over 40% in size
Records with an inconclusive call do not appear. The source made the active and inactive calls. Calls come from the whole dose curve; as a rule, active = well fitted cell-killing curve with a large enough effect; inconclusive = small, poorly fitted or top-dose-only effect, or effect the other way; inactive = no such curve, though single readings can be large or run the other way.
Log the outcome using a class from active, inactive

COMPOUND	CLASS LABEL
COc1ccc(/C(C)=C/C(=O)O)c(OC)c1	inactive
COc1cc(C[C@H]2COC(=O)[C@@H]2Cc2ccc(O)c(OC)c2)ccc1O	inactive
CC(=O)O[C@H]1[C@H](O[C@H]2CC[C@]34C[C@]35CC[C@]3(C)[C@@H]([C@@]6(C)CC[C@@H](C(C)(C)O)O6)[C@@H](O)C[C@@]3(C)[C@@H]5C[C@H](O[C@@H]3O[C@H](CO)[C@@H](O)[C@H](O)[C@H]3O)[C@H]4C2(C)C)OC[C@@H](OC(C)=O)[C@@H]1O	inactive

[Q] Please share the test call associated with CC(=O)OC1C=C(C(=O)O)C2(CO)CCC(C)C(C)(CCc3ccoc3)C2C1 (stereo not given) .
[A] inactive

[Q] Given C#CCN(Cc1cc2c(=O)n(C)c(CN3CCN(C)CC3)nc2cc1Cl)c1ccc(C(=O)NCc2cccnc2)cc1 , state the outcome it received in this test.
[A] inactive

[Q] Call for entry COc1cc2nc(N3CCN(C(=O)C4CCCO4)CC3)nc(N)c2cc1OC (stereo not given) :
[A] inactive

[Q] Please share the test call associated with Nc1ccc(C(=O)Nc2cccc(-c3nc(N4CCOCC4)c4oc5ncccc5c4n3)c2)cn1 .
[A] active

[Q] Hi team, can someone confirm the assay call for CC[C@@H](N)CNc1ccnc(-c2cc(-c3cnn(C)c3)ccc2O)n1 ?
[A] active

[Q] How did this test come out for COC(=O)[C@H](O)[C@H]1C(C)(C)[C@H](OC(C)=O)[C@@]2(O)C(=O)[C@]1(C)C1CC[C@]3(C)C(CC(=O)O[C@H]3c3ccoc3)[C@]13O[C@@H]32 (stereo not given in full) ?
[A] inactive

[Q] Hello, I am checking results. What call was entered for CN1CCN(CCCN2c3ccccc3Sc3ccc(S(=O)(=O)N(C)C)cc32)CC1 ?
[A] active

[Q] // param item: C[C@H]1[C@H](NC(=O)/C(=N/OC(C)(C)C(=O)O)c2csc(N)n2)C(=O)N1S(=O)(=O)O (stereo in doubt) ; yields the recorded call
[A] inactive

[Q] What outcome does the record of this test show for Cn1cncc1C(N)(c1ccc(Cl)cc1)c1ccc2c(c1)c(-c1cccc(Cl)c1)cc(=O)n2C (stereo not given) ?
[A] active

[Q] Field: outcome | Entry: C[C@@H]1CC[C@]2(C(=O)O)CC[C@]3(C)C(=CCC4[C@@]5(C)C[C@@H](O)[C@H](O)[C@@](C)(CO)C5CC[C@]43C)C2[C@]1(C)O (stereo not given in full)
[A] inactive

[Q] How was C[C@H]1CC[C@@]2(OC1)O[C@H]1CC3C4CC[C@H]5C[C@@H](O)[C@H](O)C[C@]5(C)C4=CC(=O)[C@]3(C)[C@H]1[C@@H]2C (stereo not given in full) classified in this test?
[A] inactive

[Q] Hi, sorry to bother you, what did the test record for COc1cc(C=O)ccc1O ?
[A] inactive

[Q] Recorded test call requested for COC1OC(O)C2(CCC3(O2)C(C)CC2OC(=O)C4(C)CCCC3(C)C24)C1O (stereo not given)
[A] inactive

[Q] Short answer needed: outcome of this test for Nc1nc(N)c(-c2ccccc2)s1 ?
[A] inactive

[Q] Each compound tested received a call. Report the one for O=C(Nc1ccccc1-c1cn2c(CN3CCNCC3)csc2n1)c1ccc2ccccc2n1 .
[A] active

[Q] In this assay, the call recorded for CCCCC(CC)COC(=O)/C=C/c1ccc(OC)cc1 (stereo not given) was what?
[A] inactive
